Target: AsPC-1 HiBiT-KRASG12D (Homo sapiens, UniProt P01116, G12D)
Construct: insert the HiBiT tag onto the N-terminus of one or more of the endogenous KRAS alleles; endogenous in cells; host or cells: AsPC-1 (ATCC CRL-1682), CRISPR-Cas9 knock-in clone, one tagged allele
Sequence (P01116 1-188 isoform P01116-2 G12D): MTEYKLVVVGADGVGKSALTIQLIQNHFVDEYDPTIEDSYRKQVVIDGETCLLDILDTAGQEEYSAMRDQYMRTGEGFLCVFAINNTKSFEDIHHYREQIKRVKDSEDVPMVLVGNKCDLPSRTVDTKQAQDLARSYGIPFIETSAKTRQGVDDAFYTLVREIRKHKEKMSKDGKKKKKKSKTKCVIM
Assay: HiBiT degradation assay (G12D), AsPC-1 HiBiT-KRASG12D cells
Assay type: cell-based
Settings: AsPC-1 HiBiT-KRASG12D cells, 24 hours treatment, HiBiT luminescence
Field: DC50. Provide a value for each of the molecules that follow.

Solved cases below.
{"columns": ["MOLECULE", "DC50"],
 "data": [
  ["C#Cc1c(F)ccc2cc(O)cc(-c3ncc4c(N5CC6CCC(C5)N6)nc(OCCN5CCC(CN6CCN(c7cc([C@@H](C(=O)N8C[C@H](O)C[C@H]8C(=O)N[C@@H](C)c8ccc(-c9ccnn9C)cc8)C(C)C)on7)CC6)CC5)nc4c3F)c12", "1000 to 3000 nM"],
  ["CCc1cccc2cc(O)cc(-c3ncc4c(N5CC6CCC(C5)N6)nc(OCCN5CCC(COc6cc([C@H](C(=O)N7C[C@H](O)C[C@H]7C(=O)N[C@@H](C)c7ccc(-c8ccnn8C)cc7)C(C)C)on6)CC5)nc4c3F)c12 (relative stereo)", "< 600 nM"],
  ["CCc1cccc2cc(O)cc(-c3ncc4c(N5CC6CCC(C5)N6)nc(OCCN5CCC6(CC5)CN(c5cc([C@@H](C(=O)N7C[C@H](O)C[C@H]7C(=O)NCc7ccc(-c8scnc8C)cc7)C(C)C)on5)C6)nc4c3F)c12 (relative stereo)", "> 3000 nM"]
]}

*Q* Name the reported DC50 value associated with the molecule "CCc1cccc2cc(O)cc(-c3ncc4c(N5CC6CCC(C5)N6)nc(OC[C@]56CCCN5[C@H](COC(=O)N5CCN(c7cc([C@@H](C(=O)N8C[C@H](O)C[C@H]8C(=O)N[C@@H](C)c8ccc(-c9scnc9C)cc8)C(C)C)on7)C[C@@H]5C)CC6)nc4c3F)c12"
*A* < 600 nM
